- assay-explanation: parental HEK293 membrane potential modulation, confirmation, counter-screen for TRPC6 modulator project, cell-based (AID 488924)
- measurement-parameters: parental HEK293, membrane potential dye fluorescence; at 10 µM
This is one part of the list. Activity calls are given as the source filed them.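 The calls were made as follows: active = membrane potential signal moves up or down beyond 5 SD from buffer-only wells, on both duplicate plates; inactive = the rest.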
property: membrane potential signal change

Below: 5 compounds and their reported membrane potential signal change.
{"columns": ["compound", "property", "observed-measurement"],
 "data": [
  ["c1ccc(C2CNCc3c2ccc2ccccc32)cc1 (centres undefined)", "membrane potential signal change", "inactive"],
  ["N=c1n(CCc2ccccc2)c2ccccc2n1Cc1ccccc1F", "membrane potential signal change", "129% (active)"],
  ["O=C(O)c1ccc(NC(=O)c2ccc(COc3ccc(Cl)cc3)o2)cc1", "membrane potential signal change", "inactive"],
  ["CC(C)(C)Nc1nc(-c2ccccn2)nc2ccccc12", "membrane potential signal change", "-424% (active)"],
  ["COC(=O)c1ccc(NC(=O)CSc2nnc(-c3ccncc3)n2C)cc1", "membrane potential signal change", "292% (active)"]
]}

What value of measured membrane potential signal change is listed for O=C(C1CCN(S(=O)(=O)Cc2ccccc2)CC1)N1CCCc2ccccc21 ? 90% (active)

For the compound shown here, CN1CCN(c2nc(Nc3ccc(O)cc3)nc3ccccc23)CC1 , give the reported membrane potential signal change. -221% (active)

Quick one: membrane potential signal change for CCC(C)NCCOCCOc1ccc(Br)cc1C (centres undefined) ? 94% (active)

Data request, read-out membrane potential signal change, for CCCCc1nc(NCCN)c(C#N)c2c1CSC(C)(C)C2 inactive
